Data origin: PubChem BioAssay (NCI)

Tested on: U251 CNS
assayOverview: NCI-60 one-dose screen, 48 h
conditionSet: 10 µM
This is part of a sample that, as a whole, favours compounds with a hit. Of some 83,000 tested, about 20% had one in any assay. Calls of active or inactive are those of the source. Rule for the calls: active = growth percent below 10; inactive = the rest.
Lab note: assign the record to one of active, inactive

Solved cases (3 shown):
{"molecule": "FC(F)(F)c1ccc2nc(-c3nc(-c4ccccc4)n4ccccc34)[nH]c2c1", "labelValue": "inactive"}
{"molecule": "Cc1ncc(-c2ccoc2)c(NC2CCCCCC2)n1", "labelValue": "inactive"}
{"molecule": "O=C1/C(=C\\c2ccc(F)cc2)CN(C(=O)c2ccccc2)C/C1=C\\c1ccc(F)cc1", "labelValue": "active"}

Now for another entry.
## Task Outcome logged for `O=C1/C(=C\c2ccccc2)CN(C(=O)c2ccccc2F)C/C1=C\c1ccccc1` in this assay:
## Result active

* * *

Test system: M14 melanoma
assayOverview: NCI-60 one-dose screen, 48 h (100 = growth as untreated, 0 = no growth, -100 = all killed)
conditionSet: 10 µM
About 83,000 compounds went through this panel and 20% of them were active in at least one assay; those are over-represented in the sample as a whole.
attributeMeasured: growth (%)
Give a bare numeral; the unit % is implied.

Sample answers from the record:
{"smilesRepr": "CCCCC/C=C/C(=O)CCc1ccc(O)c(OC)c1", "growth [%]": 80.7}
{"smilesRepr": "COc1cc(Nc2ncnc(Nc3ccc4c(n3)NC(=O)C(C)(C)O4)n2)cc(OC)c1OC", "growth [%]": 40}
{"smilesRepr": "COc1cc(C)ccc1C(=O)c1ccc(C)cc1OC", "growth [%]": 12.4}
{"smilesRepr": "CN(Cc1ccccc1)Cc1ccc([N+](=O)[O-])cc1I", "growth [%]": 102}

Alright, here's another compound for you.
## Task What does the record list as growth for `CCn1cc(C(=O)O)c(=O)c2cnc(N3CCCC3)nc21` ?
## Result 96.9

* * *

growth values, listed per item
System: SF-539 CNS
assayOverview: NCI-60 one-dose screen, 48 h (100 = growth as untreated, 0 = no growth, -100 = all killed)
conditionSet: 10 µM
Protocol: Cells are grown in 96 well plates and exposed to the test compound for 48 hours. Compounds are tested at a single concentration, which is 10^-5 M for most compounds. The reported endpoint is percent growth (GI% or GIPRCNT), where numbers from 0 - 100% represent growth inhibition, and numbers from -100% - 0 represent cell death. For example, a value of 40 represents 60% growth inhibition. A value of 0 means no net growth occurred over the course of the experiment. […]
This is part of a sample that, as a whole, favours compounds with a hit. Of some 83,000 tested, about 20% had one in any assay.
Report as a plain number; the unit % is understood.

{"compound": "Cc1cc(N(CCCNc2ccnc3cc(Cl)ccc23)Cc2cccs2)nc(Cl)n1", "measuredOn": "SF-539 CNS", "growth [%]": 56.3}

## Task Request the reported growth associated with `COc1ccc(-c2nc3sccn3c2-c2nc3c([nH]2)C(=O)c2ccccc2C3=O)cc1`
## Result 98

## Task Field request: growth | item: `Cc1nc2oc3ccccc3c(=O)c2cc1C(=O)NCc1ccccc1`
## Result 93.4

## Task Requested field: growth. Item: COc1ccc2c(c1)N(CCO)C1=C(C(=O)OC1)C2c1ccccc1 (stereo not drawn)
## Result 2.74

## Task Quick one: growth of `FC(F)(F)c1ccc(-c2cnc(-n3cc(COCCN4CCCCC4)nn3)nc2NC2CCCCCC2)cc1` ?
## Result -66.8

## Task # get_value(readout='growth', item= `O=C(Nc1cccc(-n2cc(-c3ccncc3)c(-c3ccc(O)c(Cl)c3)n2)c1)Nc1ccc(Cl)c(Cl)c1` )
## Result -19.8

## Task For `CSc1nn(-c2ccccc2)c2ncnc(Oc3ccccc3)c12` , what is its reported growth?
## Result 98

## Task Entry under review: `COc1ccc(-c2nc(-c3nc4ccc(Cl)cc4[nH]3)c3ccccn23)cc1` . Reported growth?
## Result -13.7
